System: Plasmodium falciparum
Assay: Antimalarial activity against Plasmodium falciparum 3D7 after 72 hrs by pLDH assay
Assay type: functional, organism-based
Conditions: 3D7, 72 h
observation_type: pIC50
By convention, pIC50 is the negative base-10 log of a molar concentration.

Please review the following examples before continuing.
INSERT INTO results (compound, target_under_test, meas_value) VALUES
  ('C[C@@H]1CC[C@H]2[C@@H](C)C(=O)O[C@@H]3O[C@@]4(C)CC[C@@H]1[C@]32OO4', 'Plasmodium falciparum', 7.34),
  ('C=C[C@H]1CN2CC[C@H]1C[C@H]2[C@H](O)c1ccnc2ccc(OC)cc12', 'Plasmodium falciparum', 7.13);

Shift focus to the following entry.
Exercise: // returns reported pIC50 for input COc1ccc2nccc([C@@H](O)C3CC4CCN3CC4CC(=O)O[C@@H]3OC4O[C@]5(C)CCC6[C@H](C)CCC([C@H]3C)[C@@]46OO5)c2c1 (stereo partly drawn)
Key: 7.98

----------
Test system: Plasmodium falciparum
Experiment: Antimalarial activity against Plasmodium falciparum 3D7 after 48 hrs by pLDH assay
Assay type: functional, organism-based
Settings: 3D7, 48 h
observation_type: IC50 (µM)
Numeric only. Scale: µM

Please review the following examples before continuing.
INSERT INTO results (molecule, observation_type, output_unit, meas_value) VALUES
  ('C[C@@H]1CC[C@H]2[C@@H](C)C(=O)O[C@@H]3O[C@@]4(C)CC[C@@H]1[C@]32OO4', 'IC50', 'µM', 0.0494),
  ('COc1ccc2nccc([C@@H](O)C3CC4CCN3CC4CC(=O)O[C@@H]3OC4O[C@]5(C)CCC6[C@H](C)CCC([C@H]3C)[C@@]46OO5)c2c1 (stereo partly drawn)', 'IC50', 'µM', 0.00895);

Shift focus to the following entry.
Exercise: // returns reported IC50 for input C=C[C@H]1CN2CC[C@H]1C[C@H]2[C@H](O)c1ccnc2ccc(OC)cc12
Key: 0.149
